Molecular target: UniProt P05177
Sequence (P05177 whole entry): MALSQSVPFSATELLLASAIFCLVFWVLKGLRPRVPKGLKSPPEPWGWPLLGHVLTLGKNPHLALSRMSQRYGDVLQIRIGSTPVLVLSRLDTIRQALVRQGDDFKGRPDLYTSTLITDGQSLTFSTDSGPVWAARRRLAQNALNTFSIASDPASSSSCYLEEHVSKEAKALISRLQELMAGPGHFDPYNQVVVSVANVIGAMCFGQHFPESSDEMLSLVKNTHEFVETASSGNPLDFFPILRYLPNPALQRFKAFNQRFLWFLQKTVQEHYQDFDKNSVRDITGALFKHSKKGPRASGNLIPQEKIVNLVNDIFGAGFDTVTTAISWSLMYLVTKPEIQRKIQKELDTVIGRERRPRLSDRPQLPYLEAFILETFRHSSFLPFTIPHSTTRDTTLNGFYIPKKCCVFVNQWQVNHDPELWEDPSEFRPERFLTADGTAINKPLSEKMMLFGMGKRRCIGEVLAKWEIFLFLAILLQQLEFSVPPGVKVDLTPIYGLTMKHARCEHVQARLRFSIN
quantity-kind: IC50 (µM)
Kindly answer with a numeric value in µM, unit omitted.

Lookup: // lookup IC50 for `Cc1[nH]c(/C=C2\C(=O)Nc3ccc(F)cc32)c(C)c1NC(=O)[C@H]1CCCN1.Cl`
Found: 17.7

* * *

Molecular target: Platelet-derived growth factor receptor alpha (Homo sapiens, UniProt P16234)
Sequence (P16234 whole entry): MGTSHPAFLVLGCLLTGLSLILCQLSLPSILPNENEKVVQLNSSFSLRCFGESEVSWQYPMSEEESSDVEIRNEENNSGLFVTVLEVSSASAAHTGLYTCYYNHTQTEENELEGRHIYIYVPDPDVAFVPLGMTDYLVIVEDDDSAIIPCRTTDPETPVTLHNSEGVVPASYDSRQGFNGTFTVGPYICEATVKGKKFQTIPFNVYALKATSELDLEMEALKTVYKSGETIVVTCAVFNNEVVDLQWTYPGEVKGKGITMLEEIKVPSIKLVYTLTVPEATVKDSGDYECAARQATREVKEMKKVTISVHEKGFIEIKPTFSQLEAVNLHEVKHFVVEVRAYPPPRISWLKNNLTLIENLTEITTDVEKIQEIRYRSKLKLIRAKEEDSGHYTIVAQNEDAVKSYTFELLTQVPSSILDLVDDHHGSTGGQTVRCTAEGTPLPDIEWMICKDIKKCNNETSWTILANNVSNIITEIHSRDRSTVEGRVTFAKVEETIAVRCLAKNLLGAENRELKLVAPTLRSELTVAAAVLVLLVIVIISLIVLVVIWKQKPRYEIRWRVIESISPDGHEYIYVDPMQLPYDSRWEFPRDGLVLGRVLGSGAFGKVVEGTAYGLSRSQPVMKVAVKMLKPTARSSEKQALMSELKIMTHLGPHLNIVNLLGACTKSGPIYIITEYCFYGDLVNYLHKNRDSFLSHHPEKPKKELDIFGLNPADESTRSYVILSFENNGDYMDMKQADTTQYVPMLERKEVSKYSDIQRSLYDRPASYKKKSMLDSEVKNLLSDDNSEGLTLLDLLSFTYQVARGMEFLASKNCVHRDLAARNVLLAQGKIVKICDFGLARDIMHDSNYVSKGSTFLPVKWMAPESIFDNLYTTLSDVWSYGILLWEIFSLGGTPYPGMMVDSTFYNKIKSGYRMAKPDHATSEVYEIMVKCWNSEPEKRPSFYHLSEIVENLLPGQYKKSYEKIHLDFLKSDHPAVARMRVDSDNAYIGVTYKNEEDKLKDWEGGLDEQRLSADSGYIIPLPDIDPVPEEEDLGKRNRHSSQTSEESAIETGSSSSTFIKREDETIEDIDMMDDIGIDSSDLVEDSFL
quantity-kind: pIC50
pIC50 is a log-scale quantity: -log10 of the concentration expressed in molar.

Lookup: Please look up its pIC50: `Cc1[nH]c(/C=C2\C(=O)Nc3ccc(F)cc32)c(C)c1NC(=O)[C@H]1CCCN1.Cl`
Found: 6.76
